# Species on record: Rattus norvegicus
# Experimental details: Selectivity index, ratio of Ki rat for MAOA to Ki for rat MAOB
Observed property: Ratio Ki

Record excerpt, results attached:
input: Given the compound "O=C(Oc1ccc(C2=NCCN2)cc1)c1ccccc1" , what is its reported Ratio Ki?
output: 9.27

input: Could you share which Ratio Ki value was measured for "c1ccc(C2=NCCN2)cc1" ?
output: 1.35

input: Return reported Ratio Ki; argument: "COc1ccc(C2=NCCN2)cc1OC"
output: 0.013

input: I am curious: what Ratio Ki value has been reported for "COc1ccc(C2=NCCN2)cc1" ?
output: 0.48

input: Could you share which Ratio Ki value was measured for "Cc1ccc(C2=NCCN2)cc1" ?
output: 7.79

input: What does the data say about its Ratio Ki? Entry: "c1ccc2cc(C3=NCCN3)ccc2c1"
output: 9.32

[1] c1ccc2nc(C3=NCCN3)ccc2c1
[2] Clc1ccc(C2=NCCN2)c(Cl)c1
[3] COc1cc(C2=NCCN2)cc(OC)c1OC
[4] Clc1ccc(C2=NCCN2)cc1
input: Arrange the 4 compounds by rising Ratio Ki, starting with the smallest. Please list each label once, in the requested order.
output: 3, 1, 2, 4

###

# Measurement target: Amine oxidase [flavin-containing] B (Rattus norvegicus)
# Sequence (P19643 whole entry): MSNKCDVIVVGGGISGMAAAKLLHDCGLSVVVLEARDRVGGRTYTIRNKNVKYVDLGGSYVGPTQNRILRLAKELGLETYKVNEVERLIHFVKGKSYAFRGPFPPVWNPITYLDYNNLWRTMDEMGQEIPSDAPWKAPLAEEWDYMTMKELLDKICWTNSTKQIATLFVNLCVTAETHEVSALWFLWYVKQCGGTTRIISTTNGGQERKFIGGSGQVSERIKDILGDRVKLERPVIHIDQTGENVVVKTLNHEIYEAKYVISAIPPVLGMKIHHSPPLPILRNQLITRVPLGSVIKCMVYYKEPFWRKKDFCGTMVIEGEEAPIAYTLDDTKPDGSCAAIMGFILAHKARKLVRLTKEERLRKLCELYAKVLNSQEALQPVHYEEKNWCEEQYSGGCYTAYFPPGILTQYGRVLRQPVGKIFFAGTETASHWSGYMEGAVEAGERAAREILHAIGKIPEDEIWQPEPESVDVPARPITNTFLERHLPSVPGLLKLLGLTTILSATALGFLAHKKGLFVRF
# Experimental details: Binding affinity to MAOB imidazoline binding site in rat brain mitochondrial homogenate assessed as 4-hydroxyquinoline production by spectrophotometry
pKi: −log10 of the molar value.
Observed property: pKi

[a] O=C(Oc1ccc(C2=NCCN2)cc1)c1ccccc1
[b] Cc1ccc(C2=NCCN2)cc1
[c] COc1ccc(C2=NCCN2)cc1
[d] Clc1ccc(C2=NCCN2)cc1
input: Ascending by pKi, please: list the molecules accordingly. # list labels per requested ordering
output: c, b, d, a
(c: 4.49, b: 4.88, d: 5.27, a: 5.86)

[A] c1ccc2cc(C3=NCCN3)ccc2c1 [BENAZOLINE]
[B] Clc1ccc(C2=NCCN2)c(Cl)c1
[C] Clc1ccccc1C1=NCCN1
[D] COc1cc(C2=NCCN2)cc(OC)c1OC
input: Descending sort on pKi required. Respond with the label ranking, as requested.
output: A, B, C, D

[I] c1ccc2nc(C3=NCCN3)ccc2c1
[II] c1ccc(C2=NCCN2)nc1
input: // pick min by pKi: I , II Your answer should be the label attached to the chosen record.
output: II
(II: 4.60, I: 5.27)

[A] O=[N+]([O-])c1cccc(C2=NCCN2)c1
[B] COc1ccc(C2=NCCN2)cc1OC
input: Select one. Lower pKi: A or B Use the label to indicate which entry you chose.
output: B
(B: 3.00, A: 4.72)

[1] c1ccc2oc(C3=NCCN3)cc2c1
[2] c1ccc(C2=NCCN2)cc1
input: Given the listed items, does 1 or 2 have the lesser reported pKi? Pick one; state its label.
output: 2
(2: 4.67, 1: 5.44)
